System: Herpes simplex virus
Protocol: In vitro plaque inhibition of Herpes simplex virus in BSC-1 or Hela cells (Table 3)
Type: cell-based
Condition parameters: 72 h, 100 mcg/ml; 72 hours at 37° C.; read-out: PERCENT INHIBITION OF PLAQUES AT 100 mcg/ml
Counter-ions that a name gives are not always drawn.

{"Compound": "NC1=NC(Cl)=CC2=NCCN12 [hydrochloride]", "inhibition at 100 µg/mL, %": 11}
{"Compound": "CC1=NC(N2CCCC2)=CC2=NCCN12 [hydrochloride]", "inhibition at 100 µg/mL, %": 7}
{"Compound": "CNC1=CC2=NCCN2C(C)=N1 [dihydrochloride]", "inhibition at 100 µg/mL, %": 30}
{"Compound": "CC1=NC(N(C)Cc2ccccc2)=CC2=NCCN12 [hydrochloride]", "inhibition at 100 µg/mL, %": 9}
{"Compound": "CCC1=NC(Cl)=CC2=NCCN21.Cl [hydrochloride]", "inhibition at 100 µg/mL, %": 100}

---

System: Herpes simplex virus
Protocol: In vitro plaque inhibition of Herpes simplex virus in BSC-1 or Hela cells (Table 3)
Format: cell-based
Condition parameters: 72 h, 25 mcg/ml; 72 hours at 37° C.; read-out: PERCENT INHIBITION OF PLAQUES AT 25 mcg/ml
Counter-ions that a name gives are not always drawn.

{"Compound": "CNC1=CC2=NCCN2C(C)=N1 [dihydrochloride]", "Unit abbreviation": "%", "inhibition at 25 µg/mL": 27}
{"Compound": "CC1=NC(Cl)=CC2=NC(c3ccccc3)CN12.Cl (racemic) [hydrochloride]", "Unit abbreviation": "%", "inhibition at 25 µg/mL": 87}
{"Compound": "CC1=NC(N2CCCC2)=CC2=NCCN12 [hydrochloride]", "Unit abbreviation": "%", "inhibition at 25 µg/mL": 0}
{"Compound": "CCC1=NC(Cl)=CC2=NCCN21.Cl [hydrochloride]", "Unit abbreviation": "%", "inhibition at 25 µg/mL": 50}
{"Compound": "CC1=NC(Cl)=CC2=NCC(c3ccccc3)N12 (racemic) [hydrochloride]", "Unit abbreviation": "%", "inhibition at 25 µg/mL": 78}
{"Compound": "CC1=NC(Cl)=CC2=NCC(C)N12 (racemic) [hydrochloride]", "Unit abbreviation": "%", "inhibition at 25 µg/mL": 12}
{"Compound": "CC1=NC(N(C)Cc2ccccc2)=CC2=NCCN12 [hydrochloride]", "Unit abbreviation": "%", "inhibition at 25 µg/mL": 0}
{"Compound": "NC1=NC(Cl)=CC2=NCCN12 [hydrochloride]", "Unit abbreviation": "%", "inhibition at 25 µg/mL": 0}
